test.system: Endoribonuclease Dicer (Homo sapiens) (UniProt Q9UPY3)
Sequence (Q9UPY3 whole entry, looked up): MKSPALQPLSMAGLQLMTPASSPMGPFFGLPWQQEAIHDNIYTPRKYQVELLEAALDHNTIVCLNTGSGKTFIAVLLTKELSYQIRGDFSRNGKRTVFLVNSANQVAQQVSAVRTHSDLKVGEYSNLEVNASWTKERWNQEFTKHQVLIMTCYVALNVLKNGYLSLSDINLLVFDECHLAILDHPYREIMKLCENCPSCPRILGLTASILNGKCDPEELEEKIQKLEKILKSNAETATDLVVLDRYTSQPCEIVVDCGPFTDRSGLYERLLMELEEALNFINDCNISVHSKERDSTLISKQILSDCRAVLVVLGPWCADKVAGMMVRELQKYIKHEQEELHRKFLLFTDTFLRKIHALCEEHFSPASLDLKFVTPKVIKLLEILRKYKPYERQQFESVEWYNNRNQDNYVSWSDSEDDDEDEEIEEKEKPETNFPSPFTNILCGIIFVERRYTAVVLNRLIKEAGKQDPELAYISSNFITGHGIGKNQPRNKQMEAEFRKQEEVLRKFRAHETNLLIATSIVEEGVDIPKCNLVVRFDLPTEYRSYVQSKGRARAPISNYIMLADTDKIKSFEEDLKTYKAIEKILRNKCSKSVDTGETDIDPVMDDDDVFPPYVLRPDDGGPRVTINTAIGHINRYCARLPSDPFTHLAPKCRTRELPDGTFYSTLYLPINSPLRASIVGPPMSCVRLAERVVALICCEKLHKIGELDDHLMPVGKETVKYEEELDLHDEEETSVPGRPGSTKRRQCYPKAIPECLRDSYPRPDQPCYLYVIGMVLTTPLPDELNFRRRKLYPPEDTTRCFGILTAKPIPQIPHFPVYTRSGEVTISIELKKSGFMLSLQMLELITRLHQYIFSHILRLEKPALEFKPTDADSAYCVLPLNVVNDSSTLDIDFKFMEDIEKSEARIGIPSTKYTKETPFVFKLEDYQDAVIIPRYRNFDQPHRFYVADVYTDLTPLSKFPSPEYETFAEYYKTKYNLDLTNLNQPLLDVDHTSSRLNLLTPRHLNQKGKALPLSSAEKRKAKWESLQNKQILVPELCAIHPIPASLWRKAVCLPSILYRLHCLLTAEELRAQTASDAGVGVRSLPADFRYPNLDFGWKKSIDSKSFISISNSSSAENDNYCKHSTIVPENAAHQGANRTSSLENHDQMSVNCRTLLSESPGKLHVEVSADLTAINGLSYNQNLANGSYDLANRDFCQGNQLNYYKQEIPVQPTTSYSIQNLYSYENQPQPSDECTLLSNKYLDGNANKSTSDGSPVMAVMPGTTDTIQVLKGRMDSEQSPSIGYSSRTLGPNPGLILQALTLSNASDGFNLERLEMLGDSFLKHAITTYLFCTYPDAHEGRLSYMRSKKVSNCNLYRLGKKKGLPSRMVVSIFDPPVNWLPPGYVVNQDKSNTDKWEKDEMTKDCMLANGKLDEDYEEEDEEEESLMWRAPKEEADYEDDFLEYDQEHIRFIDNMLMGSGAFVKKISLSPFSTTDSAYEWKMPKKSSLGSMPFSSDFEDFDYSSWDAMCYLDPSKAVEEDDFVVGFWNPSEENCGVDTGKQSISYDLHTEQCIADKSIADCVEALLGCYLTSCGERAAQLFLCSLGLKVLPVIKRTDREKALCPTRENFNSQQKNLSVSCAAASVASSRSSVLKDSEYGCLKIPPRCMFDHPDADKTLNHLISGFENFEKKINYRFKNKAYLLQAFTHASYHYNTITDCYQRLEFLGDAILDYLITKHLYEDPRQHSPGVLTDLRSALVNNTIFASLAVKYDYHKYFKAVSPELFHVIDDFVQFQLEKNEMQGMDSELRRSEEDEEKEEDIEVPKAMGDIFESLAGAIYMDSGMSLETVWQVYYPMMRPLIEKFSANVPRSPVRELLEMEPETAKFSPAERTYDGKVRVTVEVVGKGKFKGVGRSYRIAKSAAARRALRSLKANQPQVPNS
experiment.notes: Dicer cleavage of pre-miR-21 blockers – biochemical, cat-ELCCA, chemiluminescence, primary screen (AID 1347074);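 also: plate controls were vehicle for no effect and no enzyme for full effect; higher signal means more uncleaved substrate so more Dicer inhibition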
test.context: cat-ELCCA pre-miR-21 Dicer processing, at 25 µM, stronger effect = higher value
The whole screen tested about 47,000 compounds, of which about 2,800 (6%) were called active. The list comes from a sample in which actives are over-represented; it also holds close analogues and randomly drawn compounds.
Here the recorded z-score is given for each entry.
measurement.kind: z-score

[
  {
    "molecule": "Cc1onc(-c2ccccc2Cl)c1C(=O)OCC(=O)c1ccccc1",
    "test.system": "Endoribonuclease Dicer (Homo sapiens) (UniProt Q9UPY3)",
    "experimental.value": 4.29
  },
  {
    "molecule": "Cc1onc(-c2c(Cl)cccc2Cl)c1C(=O)N=S(C)(C)=O",
    "test.system": "Endoribonuclease Dicer (Homo sapiens) (UniProt Q9UPY3)",
    "experimental.value": 0.49
  },
  {
    "molecule": "COc1ccc(C2CC(=O)C3=C(C2)Nc2ccccc2NC3c2cc(F)ccc2F)cc1 (centres undefined)",
    "test.system": "Endoribonuclease Dicer (Homo sapiens) (UniProt Q9UPY3)",
    "experimental.value": 3.99
  },
  {
    "molecule": "COc1ccc(CCNC(N)=O)cc1OC",
    "test.system": "Endoribonuclease Dicer (Homo sapiens) (UniProt Q9UPY3)",
    "experimental.value": 5.13
  },
  {
    "molecule": "CCOC(=O)c1sc(SC)c2c1-c1ccccc1N(C)S2(=O)=O",
    "test.system": "Endoribonuclease Dicer (Homo sapiens) (UniProt Q9UPY3)",
    "experimental.value": -1.61
  },
  {
    "molecule": "COC(=O)C1=C(C)NC2=C(C(=O)CC(c3ccccc3)C2)C1c1ccc(C)cc1 (centres undefined)",
    "test.system": "Endoribonuclease Dicer (Homo sapiens) (UniProt Q9UPY3)",
    "experimental.value": 0.18
  },
  {
    "molecule": "CN(C)[C@@H]1C(=O)C(C(N)=O)=C(O)[C@@]2(O)C(=O)C3=C(O)c4c(O)ccc(Cl)c4[C@@H](O)[C@H]3C[C@@H]12",
    "test.system": "Endoribonuclease Dicer (Homo sapiens) (UniProt Q9UPY3)",
    "experimental.value": 0.22
  },
  {
    "molecule": "CCOC(=O)c1sc(N2C(=O)c3oc4ccccc4c(=O)c3C2c2cccs2)nc1C (centres undefined)",
    "test.system": "Endoribonuclease Dicer (Homo sapiens) (UniProt Q9UPY3)",
    "experimental.value": 1.43
  },
  {
    "molecule": "CC(C)(C)OC(=O)n1ccc2cc(Br)ccc21",
    "test.system": "Endoribonuclease Dicer (Homo sapiens) (UniProt Q9UPY3)",
    "experimental.value": 3.27
  },
  {
    "molecule": "O=c1c(-c2ccc(OC3O[C@H](CO)[C@@H](O)[C@H](O)[C@H]3O)cc2)coc2cc(O)cc(O)c12 (some centres undefined)",
    "test.system": "Endoribonuclease Dicer (Homo sapiens) (UniProt Q9UPY3)",
    "experimental.value": 0.24
  },
  {
    "molecule": "O=[N+]([O-])c1ccc(Sc2ccc(Cl)cc2)nc1",
    "test.system": "Endoribonuclease Dicer (Homo sapiens) (UniProt Q9UPY3)",
    "experimental.value": -0.03
  },
  {
    "molecule": "Cc1[nH]n(C)c(=O)c1C(=O)c1c(-c2c(Cl)cccc2Cl)noc1C",
    "test.system": "Endoribonuclease Dicer (Homo sapiens) (UniProt Q9UPY3)",
    "experimental.value": -0.59
  },
  {
    "molecule": "O=C1CC(c2ccccc2)CC2=C1C(c1cccc(Cl)c1)Nc1ccccc1N2 (centres undefined)",
    "test.system": "Endoribonuclease Dicer (Homo sapiens) (UniProt Q9UPY3)",
    "experimental.value": 1.52
  },
  {
    "molecule": "CC(C)(C)n1cnnc1Sc1ccc([N+](=O)[O-])cn1",
    "test.system": "Endoribonuclease Dicer (Homo sapiens) (UniProt Q9UPY3)",
    "experimental.value": 2.43
  }
]
